- Tested on: CYP3A
- experimentalDetails: Example 2 phase 1 drug-drug interaction study, rivoceranib 700 mg QD + 5+1 cocktail: midazolam probe
- conditionsUsed: human, in vivo, po, 2 mg, AUC(0-t), Mean (CV %), 5 + 1 cocktail alone, healthy volunteers, single oral 5+1 cocktail dose day 1, fasted
propertyLabel: AUC(0-t) (ng·h/mL)
The reply should contain only the number, in ng·h/mL.

Measured AUC(0-t) of Cc1ncc2n1-c1ccc(Cl)cc1C(c1ccccc1F)=NC2 [midazolam] : 28.1

----------
- Tested on: CYP3A
- experimentalDetails: Example 2 phase 1 drug-drug interaction study, rivoceranib 700 mg QD + 5+1 cocktail: midazolam probe
- conditionsUsed: human, in vivo, AUC(0-∞), Geometric LSM, Rivoceranib plus 5 + 1 cocktail, healthy volunteers, 5+1 cocktail day 11 + rivoceranib 700 mg QD days 6-15
propertyLabel: AUC(0-inf) (ng·h/mL)
The reply should contain only the number, in ng·h/mL.

Bench note, CYP3A: entry Cc1ncc2n1-c1ccc(Cl)cc1C(c1ccccc1F)=NC2 , its AUC(0-inf) = 82.1
